Values compiled from the supplement of paper PMC11865577.

Each record here notes measured pull-down binding Z-score.
test system: TO-3-N3 (biotin conjugate); assay: pull-down binding Z-score (relative to library population); higher = stronger binding; settings: RNA library: Library-2
Keep the answer to the number alone.

Problem: Which value of pull-down binding Z-score has been reported for GGGCCUGGGUUUCUGAACAC [hsa-mir-196a-1] in the records?
Solution: 0.328

Problem: Which value of pull-down binding Z-score has been reported for UCUCGUUCACUGGGGA [IAV_invivo_PA_3_Motif_5+IAV_invivo_PA_3_Motif_5] in the records?
Solution: 0.366

Problem: Which value of pull-down binding Z-score has been reported for AGUUCAAGAACUUUACUCUCCAAUUUUUCUUAUUGUUGCGGCAAUAGUGUUUAUAACACUUUGCUUCACACUCAAAAGAAAGACAGAAUGAUUGAACU in the records?
Solution: -0.889

Problem: Which value of pull-down binding Z-score has been reported for GCUUAUUGAUGUAGCCAACAAGC [hsa-mir-3148] in the records?
Solution: -0.527

Problem: Which value of pull-down binding Z-score has been reported for GCAGGGACCCCUCCAAGUUGGGGACGGCAGC [hsa-mir-6858] in the records?
Solution: 0.172

----------
test system: TO-N3-2 (biotin conjugate); experiment: pull-down binding Z-score (relative to library population); higher = stronger binding; details: RNA library: Library-2
Label Not fulfilled if pull-down binding Z-score falls below 0.9; label Fulfilled in every other case.

Take a look at these entries with their results.
>>> df
                     macromolecule_sequence    group_label
0  CAAUACAUAAGAAAGCUACAUGAUGAGUUAACAGGACACAUGUUAGACAUGUAUUCUGUUAUGCUUACUAAUGAUAACACUUCAAGGUAUUG  Not fulfilled
1   CCGACUCUGAGUAUGAUAGAAGUC [hsa-mir-148a]      Fulfilled
2     GCGCUGCCAGAAACUGGCCGCGC [mismatch-UC]  Not fulfilled
3  CAUUUCAGCGUAUAUAUGUAUAUGUGGCUGUG [hsa-mir-19b-2]  Not fulfilled
4  GGCAGGAGGCAGUGAAGUAACUUGC [hsa-mir-3934]      Fulfilled
5    CAGGCUGUGGCUCUCUGAAAGUC [hsa-mir-148b]      Fulfilled
6  CGGAUUCUGAAAGAAGAAUCCG [IAV_invivo_NS1_NEP_8_Motif_5+IAV_invivo_NS1_NEP_8_Motif_5]  Not fulfilled
7  UGUUCAUGUCUCUCUGUGCACAGGGGACGAGAGUCA [hsa-mir-4420]  Not fulfilled

Problem: Evaluate UCUUGGUGCCACCAUUGAGAACGCCAGGA [hsa-mir-492] : pull-down binding Z-score at minimum 0.9?
Solution: Not fulfilled

Problem: Evaluate GGGAGAGGGGCCCAGCUGACCCUCCUGUC [hsa-mir-6879] : pull-down binding Z-score at minimum 0.9?
Solution: Fulfilled

----------
Each record here notes measured pull-down binding Z-score.
test system: G-clamp-N3 (biotin conjugate); assay: pull-down binding Z-score (relative to library population); higher = stronger binding; conditions: RNA library: Library-1 (pre-miRNA loops + repeats)

                     macromolecule_sequence          measured_property  result_value
0  UUGUUCGUUGCAUUUUUAGGAACAA [hsa-mir-3613]  pull-down binding Z-score           1.4
1  AGGCUUGGCACUUGAGGGAAAGCCU [hsa-mir-8059]  pull-down binding Z-score          2.67
2   GGGUGUAUGGUAUAGGGGUAGCCU [hsa-mir-3137]  pull-down binding Z-score          3.31

Problem: Which value of pull-down binding Z-score has been reported for UCAUUUAUGUGAACUAAAAUAUAAAUUU [hsa-mir-513a-2_513a-1] in the records?
Solution: -1.8

Problem: Which value of pull-down binding Z-score has been reported for CAUUGUAAUAGUUCAUAUGGGCACUG [hsa-mir-3660] in the records?
Solution: 2.34

Problem: Which value of pull-down binding Z-score has been reported for UUCUCUUUAUUUAUGAUGAA [hsa-mir-494] in the records?
Solution: -1.25

Problem: Which value of pull-down binding Z-score has been reported for UUGAUUCAGUAAAACAUUCAA [hsa-mir-891b] in the records?
Solution: -0.189

Problem: Which value of pull-down binding Z-score has been reported for UAUGCCAUUAAAAGUAAUGGUAAA [hsa-mir-548aj-1] in the records?
Solution: -0.52

Problem: Which value of pull-down binding Z-score has been reported for UUUACCAUUACUUUCAAUGGCAAA [hsa-mir-548a-3] in the records?
Solution: -0.644

Problem: Which value of pull-down binding Z-score has been reported for GAGUUUGGAGUCGGUGGGUGGAGCCAAACUG [hsa-mir-6860] in the records?
Solution: 2.37

Problem: Which value of pull-down binding Z-score has been reported for AUCAAAGUGGGGACUCAUGGGGAGAG [hsa-mir-4284] in the records?
Solution: 0.195

Problem: Which value of pull-down binding Z-score has been reported for UAUAGGAAGGAAAUCUUAU [hsa-mir-6129] in the records?
Solution: -0.636
